All figures here come from patent US8217055B2.

Test system: Echinochloa crus-galli
ASSAY NOTES: Example B2 herbicidal action, post-emergence, pots in glasshouse, evaluated after 13 days (10=total damage to plant; 0=no damage to plant)
Assay type: in vivo
EXPERIMENTAL CONTEXT: rate 1000 g/ha
Description: Seeds of a variety of test species were sown in standard soil in pots. […] After 13 days, the test was evaluated (10=total damage to plant; 0=no damage to plant).
PROPERTY LABEL: ECHCG damage score (10=total damage to plant; 0=no damage to plant)
Respond using a number only.

Solved cases (4 shown):
* O=c1c(-c2c(F)ccc(Cl)c2Cl)c(O)c2nccnc2n1CC(F)F | 6
* CC(C)(C)C(=O)Oc1c(-c2ccccc2OC(F)F)c(=O)n(CC(F)F)c2nccnc12 | 1
* Cc1cc(C)c(-c2c(OC(=O)C(C)(C)C)c3nccnc3n(CC(F)F)c2=O)c(C)c1 | 7
* COc1ccc(OC(F)(F)F)cc1-c1c(OC(=O)C(C)C)c2nccnc2n(CC(F)F)c1=O | 8

Now, please, on to the next molecule.
Report ECHCG damage score (10=total damage to plant; 0=no damage to plant) for CC(C)(C)C(=O)Oc1c(-c2c(F)ccc(Br)c2Cl)c(=O)n(CC(F)F)c2nccnc12 tested on Echinochloa crus-galli.
7
